Data provenance: PubChem BioAssay (NCATS)

# SYSTEM NAME: Cytochrome P450 2C9 (Homo sapiens)
# ASSAY METHOD TEXT: qHTS Assay for Inhibitors and Substrates of Cytochrome P450 2C9 (AID 883); also: nearly all actives have a fitted effect of over 60% in size
# CONDITIONS: recombinant CYP2C9, luciferin-H luminescence, 60 min; series mostly up to 57.1 µM
Results filed as inconclusive are left out. Calls of active or inactive are those of the source. Calls follow the shape of the dose curve; as a rule, active = well fitted inhibition curve with a large enough effect; inconclusive = small, poorly fitted or top-dose-only effect; inactive = no such curve, though single readings can be large or run the other way.
Respond only with the outcome that fits, drawn from Y for active, N for inactive

# GIVEN SMILES, ASSIGNED LABEL
rows = [
    ("O=c1c(CCc2ccccc2)nc2cncnc2n1Cc1ccc(F)cc1", "Y"),
    ("O=c1c(-c2ccc(F)cc2)nc2cnc(N3CCOCC3)nc2n1C[C@H]1CCCO1", "N"),
    ("Cc1cccc(CNc2ncnc3ccc(-c4ccc5c(c4)OCO5)cc23)c1", "Y"),
    ("COCCn1c(=O)c(-c2cc(F)cc(F)c2)nc2cnc(N3CCNCC3)nc21", "Y"),
    ("O=C(c1ccncc1)N1CCC2(CC1)CN(c1ccccc1)C2", "Y"),
    ("COc1ccc2[nH]cc(CCNc3ncncc3-c3ccc(N(C)C)cc3)c2c1", "Y"),
    ("O=S(=O)(c1ccccc1)N1CCC2(CCN(C(c3ccccc3)c3ccccc3)CC2)CC1", "Y"),
    ("COc1ccccc1CN1CC[C@@]2(CCCN(C(=O)c3c(C)noc3C)C2)C1", "N"),
]

QUERY: Just curious, what result did COCC(=O)N1CCC[C@@]2(CCN(C(=O)Nc3cccc(C#N)c3)C2)C1 get here?
RESULT: N

QUERY: Now this one: Cn1cc(-c2nc3cnc(N4CCNCC4)nc3n(C)c2=O)c2ccccc21
RESULT: Y

QUERY: Field entry: Cn1cc(-c2nc3cnc(Oc4cccc(Cl)c4)nc3n(CCC#N)c2=O)c2ccccc21
RESULT: N

* * *

# ASSAY METHOD TEXT: qHTS Assay for Lipid Storage Modulators (AID 1519); also: % is scaled to controls: 0 for no effect and ±100 for the full control effect
# CONDITIONS: Drosophila S3 cells, BODIPY lipid droplet/cell ratio, laser cytometry; at 57.5 µM (top of the series); cells loaded with oleic acid
Inconclusive results are not listed.
ENDPOINT NAME: activity change, negative = inhibition (%)
Respond with the bare value in %.

Consider the reported activity change, negative = inhibition for these molecules:
# GIVEN SMILES, activity change, negative = inhibition / %
data = [
    ("O=C(c1cnccn1)N1CCC2(CC1)CCN(C(c1ccccc1)c1ccccc1)CC2", 1.71),
    ("O=c1c(-c2cc(F)cc(F)c2)nc2cnc(N3CCNCC3)nc2n1C1CC1", 2.24),
]

Field: next molecule
QUERY: # activity change, negative = inhibition lookup, item Cc1cnc(CNc2ccnc(-c3ccccc3CN(C)C)n2)cn1
RESULT: 5.8

* * *

# SYSTEM NAME: M-phase phosphoprotein 8 (Homo sapiens)
# ASSAY METHOD TEXT: qHTS Validation Assay for Inhibitors for MPP8 Chromodomain Interactions with Methylated Histone Tails (AID 488949); also: nearly all actives have a fitted effect of over 55% in size
# CONDITIONS: AlphaScreen MPP8 binding to H3K9me3 peptide; series mostly up to 114 µM
Results filed as inconclusive are left out. Activity calls are given as the source filed them. The call rests on the fitted dose curve; in most records, active means well fitted inhibition curve with a large enough effect; inconclusive means small, poorly fitted or top-dose-only effect; inactive means no such curve, though single readings can be large or run the other way.
Select the matching outcome among TRUE = active, FALSE = inactive

# COMPOUND, SYSTEM NAME, ASSIGNED LABEL
records = [
    ("NC(=S)NCCCC(N)C(=O)O (stereo not given)", "M-phase phosphoprotein 8 (Homo sapiens)", "TRUE"),
    ("CC(C)C[C@H]1C(=O)N2CCCC2[C@]2(O)O[C@](NC(=O)[C@@H]3C=C4c5cccc6[nH]c(Br)c(c56)C[C@H]4N(C)C3)(C(C)C)C(=O)N12 (stereo not given in full)", "M-phase phosphoprotein 8 (Homo sapiens)", "FALSE"),
    ("CCSC(N)=Nc1ccc(C(F)(F)F)cc1", "M-phase phosphoprotein 8 (Homo sapiens)", "FALSE"),
    ("NCCNC(=O)c1ccc(Cl)cc1", "M-phase phosphoprotein 8 (Homo sapiens)", "FALSE"),
    ("CN(C)C1C(=O)C(C(N)=O)=C(O)[C@@]2(O)C(=O)C3=C(O)c4c(O)ccc(Cl)c4[C@@H](O)C3C[C@@H]12 (stereo not given in full)", "M-phase phosphoprotein 8 (Homo sapiens)", "FALSE"),
    ("CC(C)CN(C)c1nc(N)c(C(=O)N=C(N)N)nc1Cl", "M-phase phosphoprotein 8 (Homo sapiens)", "TRUE"),
]

QUERY: Could you check what this test reported for C[C@H]1CC2[C@@H]3CCC4=CC(=O)C=C[C@]4(C)[C@@]3(Cl)[C@@H](O)C[C@]2(C)[C@@]1(O)C(=O)CO (stereo not given in full) ?
RESULT: FALSE

QUERY: Queued: CSc1nc(N)c2ncn([C@@H]3O[C@H](COP(=O)(O)OP(=O)(O)O)[C@H](O)[C@H]3O)c2n1
RESULT: FALSE

QUERY: Next: CC(O)[C@@H](O)[C@H]1CNc2nc(N)[nH]c(=O)c2N1 (stereo not given in full)
RESULT: FALSE

QUERY: And N=C1Sc2ccccc2C2=NCCCN12 ?
RESULT: TRUE

QUERY: Same thing, different compound: CNC(=O)[C@H]1O[C@@H](n2cnc3c(NCc4ccc(N)cc4)ncnc32)[C@H](O)[C@H]1O
RESULT: FALSE

QUERY: What about this compound? N=C(N)SCCc1cccc(CCSC(=N)N)c1
RESULT: FALSE

QUERY: Also need CSc1nc(N)c2ncn([C@@H]3O[C@H](COP(=O)(O)OP(=O)(O)OP(=O)(O)O)[C@H](O)[C@H]3O)c2n1 , thanks.
RESULT: FALSE

QUERY: Check CC(C)(C)[C@]1(O)CCN2CC3c4ccccc4CCc4cccc(c43)[C@@H]2C1 (stereo not given in full) too.
RESULT: FALSE

QUERY: Next up: Nc1nc2c(nc(Br)n2C2O[C@H]3COP(=O)(O)O[C@@H]3C2O)c(=O)[nH]1 (stereo not given in full)
RESULT: FALSE

* * *

# ASSAY METHOD TEXT: UWB1.289 Cancer Cell Toxicity qHTS against the NCATS CANVASS Library (AID 1347347); also: nearly all actives have a fitted effect of over 60% in size
# CONDITIONS: UWB1.289 viability, CellTiter-Glo luminescence, 72 h; series mostly up to 38.3 µM
Inconclusive results are not listed. The source made the active and inactive calls. The call rests on the fitted dose curve; in most records, active means well fitted cell-killing curve with a large enough effect; inconclusive means small, poorly fitted or top-dose-only effect; inactive means flat fitted curve, though single readings scatter.
Returns: one label drawn from active, inactive

Some entries whose results are on file:
# COMPOUND, ASSIGNED LABEL
data = [
    ("CCC(C)=C1OC(=O)[C@H](C)[C@H](O)[C@H](Cc2cccnc2)NC(=O)C(NC(=O)c2ncccc2O)C(C)OC1=O (some centres not stated)", "inactive"),
    ("Cc1cc(O)cc2c1C(=O)c1c(O)cc(O)cc1C2=O", "inactive"),
    ("C/C=C1/CN2C3CC1C1C=CC(=O)N4c5ccccc5[C@@]3(C[C@@H]2C2=C[C@H]3C5CC6N(CC[C@@]67c6ccccc6N(C2=O)[C@@H]37)C/C5=C/C)[C@H]14 (some centres not stated)", "active"),
    ("CO[C@@H]1[C@H](O)[C@@H](C)O[C@@H](OC[C@@H]2C(C)OC(=O)/C=C/[C@H](C)C(O[C@@H]3O[C@H](C)CC4(OC(=O)O[C@@H]4C)C3O)[C@@H](C)CC(C)C(=O)/C=C/[C@H]3OC23)[C@@H]1OC (some centres not stated)", "active"),
    ("C/C(=C\\[C@H](C)C(=O)CCCC1CC(=O)NC(=O)C1)[C@@H]1OC(=O)/C=C/CC/C=C/[C@H](O)[C@@H](O)[C@@H]1C", "active"),
    ("CCCc1c2c([nH]c(=O)c1C)C(=O)c1[nH]c(=O)c(C)c(CCC)c1C2=O", "active"),
]

Now look at this entry.
QUERY: Would you mind telling me which call this test gave COC(=O)[C@]1([C@H]2CCC(=O)O2)CC(=O)c2c(O)cc(C)cc2O1 ?
RESULT: inactive

* * *

# ASSAY METHOD TEXT: AP1 Signaling Pathway (AID 357);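 also: ME-180 reporter cells stimulated with EGF at its EC50 level; % is scaled to controls: 0 for no effect and ±100 for the full control effect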
# CONDITIONS: ME-180 (cervical carcinoma) AP-1-bla reporter, EGF-induced, beta-lactamase ratio, 5 h; at 7.69 µM (top of the series) unless noted
Inconclusive results are not listed.
ENDPOINT NAME: activity change, negative = inhibition (%)
Give just the numeric value; % need not be written.

QUERY: // lookup activity change, negative = inhibition for Cc1nc2cnc(OCc3ccccc3)nc2n(C)c1=O
RESULT: -10

QUERY: Consider next the compound COc1ccc(-n2c(=O)cnc3cnc(N(C)C)nc32)cc1 in the same way.
RESULT: -17.5

QUERY: Entry to check: COCC(=O)N1CCC2(CC1)CCN(C(c1ccccc1)c1ccccc1)CC2
RESULT: -2.73

QUERY: Let us now turn to CC(=O)NCCNc1ncncc1-c1ccccc1C
RESULT: 10.6

QUERY: Same for O=c1c(-c2cccs2)nc2cnc(N3CCOCC3)nc2n1-c1ccccc1
RESULT: 25.6

QUERY: Can you handle CN1CCN(c2ncncc2-c2ccc(C(=O)N(C)C)cc2)CC1 next?
RESULT: 14.8

QUERY: Same lookup for CN1CC[C@@]2(CCCN(C(=O)c3cccc(F)c3)C2)C1 , please.
RESULT: -5.96

QUERY: // same read-out, input: COc1ccccc1-c1cc(NCc2cccnc2)ncn1
RESULT: -6.59

QUERY: And the next one, Cc1cccc(CNc2ncncc2-c2ccc3c(c2)OCO3)c1 ?
RESULT: -0.728
